Source listed as patent US9284321B2.

Strictly below 300 °C in melting point: rule met. Otherwise: rule not met.

smiles_text=Cc1c2n(c3c(-c4ccc(Cl)cc4F)cc(C#N)cc13)CCCNC2=O qualitative_label="rule met"
smiles_text=Cc1ccc(-c2cc(C#N)cc3cc4n(c23)CCNC4=O)cc1F qualitative_label="rule met"
smiles_text=Cc1c2n(c3c(-c4ccc(F)cc4F)cc(Cl)cc13)CCNC2=O qualitative_label="rule met"
smiles_text=N#Cc1cc(-c2cncnc2)c2c(c1)cc1n2CCCNC1=O qualitative_label="rule met"
smiles_text=COc1ccc(-c2cc(Cl)cc3c(C)c4n(c23)CCCNC4=O)cc1 qualitative_label="rule met"

Below: the item to evaluate.
Exercise: Lab note: melting point threshold 300 °C. Does this molecule come in strictly under it? Cc1c2n(c3c(-c4ccc(S(C)(=O)=O)cc4)cc(Cl)cc13)CCNC2=O
Key: rule not met
